# TARGET_OR_SYSTEM: SARS-CoV-2 Mac1 (Severe acute respiratory syndrome coronavirus 2, UniProt P0DTD1)
# TEST_NAME: biochemical
# CONDITIONS: read-out: %inhibition
Structures can show the parent of a compound that is named as a salt.
Kindly supply the reported inhibition at 100 µM values for the records listed here.
Numbers only, in %.

Give inhibition at 100 µM for each of the items listed below.
1. COc1ccc(CCNCC(O)COc2cccc(C)c2)cc1OC (stereo not shown) [Bevantolol hydrochloride]
2. OC(CCN1CCCCC1)(c1ccccc1)C1CCCCC1 (stereo not shown) [Trihexyphenidyl hydrochloride]
3. CC(=O)N(CC(O)CN(C(C)=O)c1c(I)c(C(=O)NC[C@@H](O)CO)c(I)c(C(=O)NC[C@@H](O)CO)c1I)c1c(I)c(C(=O)NC[C@@H](O)CO)c(I)c(C(=O)NC[C@@H](O)CO)c1I
4. Nc1nc(CC(=O)Nc2ccc(CCNC[C@H](O)c3ccccc3)cc2)cs1

## Output
1. 17.4
2. 2.89
3. 0.797
4. 0
